Provenance of the data: PubChem BioAssay (NCI)

System: SK-MEL-2 melanoma
Experiment: NCI tumour cell line growth inhibition, 48 h
In this section, each of the molecules is paired with its reported TGI.

Answered cases to consult:
{"MOLECULE": "Cn1c(=O)c2nc3c4ccccc4c(=O)n(C)c3nc2n(C)c1=O", "TGT": "SK-MEL-2 melanoma", "TGI": "> 100 µM"}
{"MOLECULE": "COc1ccc(/C=C/c2nnc(/C=C/c3ccc(OC)c(OC)c3)o2)cc1OC", "TGT": "SK-MEL-2 melanoma", "TGI": "18.6 µM"}
{"MOLECULE": "Cc1nnc(N)nc1C/C=C/C(Sc1ccc(Cl)cc1)c1ccccc1 (centres undefined)", "TGT": "SK-MEL-2 melanoma", "TGI": "21 µM"}
{"MOLECULE": "C/C(CCn1[nH]c(=O)ccc1=O)=N\\N=C(N)N", "TGT": "SK-MEL-2 melanoma", "TGI": "> 100 µM"}
{"MOLECULE": "COc1ccc(NCc2cc(OC)c(OC)c(OC)c2)cc1", "TGT": "SK-MEL-2 melanoma", "TGI": "> 100 µM"}

Turning now to a further molecule:
Prompt line: Lookup: TGI / SK-MEL-2 melanoma / CCCCCCCCc1ccc(OCCOCC[N+](C)(C)CC)cc1 (tested in a mixture with another compound)
Response line: 8.53 µM

---

System: SN12C renal
Assay: NCI tumour cell line growth inhibition, 48 h
Returns fulfilled if the recorded TGI is greater than or equal to 20 µM, and not fulfilled otherwise.

{"COMPOUND": "CCC/C=C/C=C/C(=O)OC1C(C)C2(O)C3C=C(C)C(=O)C3CC(COC(C)=O)=CC2C2C(C)(C)C12OC(=O)C(C)C (configuration not stated)", "LABEL": "fulfilled"}

Prompt line: Confirm if TGI reported for the compound c1ccc(-c2c(-c3ccccc3)[n+](Cc3ccc4ccccc4c3)c(-c3cccc4ccccc34)n2Cc2ccc3ccccc3c2)cc1 is 20 µM or above.
Response line: not fulfilled

Prompt line: What do you get for C/C(CCn1[nH]c(=O)ccc1=O)=N\N=C(N)N ?
Response line: fulfilled

Prompt line: What do you get for Cc1c(C(=O)OCc2ccccc2)[n+](=O)c2ccccc2n1[O-] ?
Response line: fulfilled

Prompt line: What do you get for CCN1CCC(Oc2c(C#N)ncc3[nH]c4ncccc4c23)CC1 ?
Response line: fulfilled

Prompt line: What do you get for COc1ccc(CCn2c3c(c4c(O)cccc42)C(=O)c2ccccc2-3)cc1OC ?
Response line: fulfilled

Prompt line: What do you get for O=C(N/N=C(/COc1ccccc1Cl)N=Cc1cccnc1)c1ccncc1 ?
Response line: fulfilled

Prompt line: What do you get for NS(=O)(=O)N(c1cc(C(F)(F)F)cc(C(F)(F)F)c1)C1CCN(Cc2ccc(F)cc2)CC1 ?
Response line: not fulfilled

Prompt line: What do you get for O=C(O/N=C1/CCCC/C1=C\c1ccccc1)c1ccc(Cl)c(Cl)c1 ?
Response line: fulfilled

Prompt line: What do you get for CN(C)CCNC(=O)c1ccc(Cl)c2ccc(-c3ccccc3)nc12 ?
Response line: not fulfilled

Prompt line: What do you get for Cc1nnc(N)nc1C/C=C/C(Sc1ccc(Cl)cc1)c1ccccc1 (configuration not stated) ?
Response line: fulfilled

---

Test system: NCI/ADR-RES ovarian
Test: NCI tumour cell line growth inhibition, 48 h
In this section, each of the compounds is paired with its reported TGI.

Answered cases to consult:
{"COMPOUND": "COc1ccc(-c2cc(-c3ccccc3)nc(/N=C\\c3ccccc3)n2)c(O)c1", "TGI": "> 100 µM"}
{"COMPOUND": "COc1cc(-c2n[nH]nc2-c2ccc3c(c2)OCCO3)cc(OC)c1OC", "TGI": "69.7 µM"}
{"COMPOUND": "COc1cc(C2=NNC(c3ccc(N(C)C)cc3)C2)cc(OC)c1OC (stereo not given)", "TGI": "> 100 µM"}
{"COMPOUND": "CCC(Cc1cnc2nc(N)nc(N)c2n1)c1ccc(C(=O)NC(CCC(=O)O)C(=O)O)cc1 (stereo not given)", "TGI": "> 100 µM"}

Prompt line: Name the recorded TGI for FC(F)(F)c1ccc(-c2cnc(Cl)nc2NC2CCCCCC2)cc1 .
Response line: > 100 µM

Prompt line: What do you get for N#Cc1c(-c2ccccc2)cc(-c2ccccc2)n(CC(=O)NO)c1=O ?
Response line: > 100 µM

Prompt line: What do you get for COc1ccc2nc3ccccc3c(NCCN(C)CCCl)c2c1 ?
Response line: 3.79 µM

Prompt line: What do you get for N#CCN1c2ccccc2CCC1Cl (stereo not given) ?
Response line: > 10 µM

Prompt line: What do you get for CCOC(=O)NC(Nc1ncn(C(NC(=O)OCC)(C(F)(F)F)C(F)(F)F)n1)(C(F)(F)F)C(F)(F)F ?
Response line: > 100 µM

Prompt line: What do you get for c1ccc(-c2cc(-c3cccs3)c(-c3cccs3)s2)cc1 ?
Response line: > 100 µM

Prompt line: What do you get for Cc1c2ccccc2cc2nc3ccccc3n12 ?
Response line: > 10 µM

Prompt line: What do you get for Cc1cc(NN)nc2n[nH]c(N)c12 ?
Response line: > 100 µM

Prompt line: What do you get for COCC(=O)Oc1cc(-c2ccc(C)cc2C)c(OC(=O)COC)c(-c2ccc(C)cc2C)c1 ?
Response line: 55.3 µM

Prompt line: What do you get for COc1cc(/C=N/Nc2ncnc3[nH]ncc23)ccc1O ?
Response line: > 25 µM

Prompt line: What do you get for O=C(NNC(=O)c1ccccc1O)c1ccccc1O ?
Response line: > 100 µM

Prompt line: What do you get for O=C(NCCCCNC(=O)OCc1ccc2c(Cl)cc(Cl)c(O)c2n1)OCc1ccc2c(Cl)cc(Cl)c(O)c2n1 ?
Response line: > 100 µM
